# credit: a melting point compilation (Tetko et al.; mined from patent text by program, amines drawn as free bases though some values may be those of a salt)

measured.metric: melting point

Field: example entries. Status: answers known.
Cc1nc(CCOc2ccc(N)cc2)oc1-c1ccccc1: 106 to 107 °C
CN(C)c1c(Cl)nc(-c2ccccc2)nc1Cl: 49 to 50 °C
CC(=O)OCCc1ccc2c(c1)C(=O)c1ccccc1CO2: 55 to 58 °C
COc1ccc2c3c([nH]c2c1)C(=O)N=NC3=O: > 260 °C
CC(=O)c1sc2sc(-c3ccncc3)c(C)c2c1C: 171 to 173 °C

melting point lookup needed for "Cc1cccc(C)c1NC(=O)CCCc1cccnc1" , thanks.
98 to 99 °C

Next: Oc1cccc([C@H]2CCCC[C@H]2NCCCCc2ccccc2)c1 (racemic)
115 to 116 °C

For "Cc1cc(-c2cc(C(F)(F)F)n3ncc(C(=O)Nc4cccc(S(C)(=O)=O)c4)c3n2)ccc1C(F)(F)F" then?
233 °C

Moving on to CCOC(=O)c1ccc(C2CC(=O)N(C)C2C(O)c2ccc(-c3ccccc3)s2)cc1 (stereo not given)
177 to 179 °C

Try the compound "Cc1nc(-c2c(Cl)cc(C(F)(F)F)cc2Cl)[nH]c1C"
281 to 282 °C

Moving on to "Cc1nc(-c2ccc([N+](=O)[O-])cc2)sc1C(=O)O"
252 to 253 °C

Another compound to check: "O=S1(=O)c2ccc(F)cc2Oc2cc(OCC(F)(F)F)ccc21"
160 to 161 °C

Lookup "CC(=O)c1cnc2c(c1)oc(=O)n2CCc1ccncc1"
148 to 150 °C

// same read-out, input: "COC(=O)CCCc1cc2nc(Cl)ccc2n1S(=O)(=O)c1cc(F)cc(F)c1"
90 °C

Same question for "O=S(=O)(Nc1nccs1)c1ccc(Nc2nc(OCC3CCCCC3)c3nc[nH]c3n2)cc1" please.
152 to 154 °C

----------
This listing pairs molecules with measured melting point.

Example entries and their recorded answers appear below.
CC(C)OC(=O)C=C1CN=C(c2ccccc2F)c2cc(Cl)ccc2N1: 144 to 145 °C
COCCOc1ccc(CSc2cnn(C(C)(C)C)c(=O)c2Cl)cc1: 106 to 107 °C
Cc1ccc(S(=O)(=O)N2C(C3=NOC(C)N3)CCC2c2ccc(F)cc2)cc1 (stereo not given): 68 °C

// lookup melting point for O=C1N(Cc2ccc(C(F)(F)F)o2)c2c(F)cccc2C12COc1cc3c(cc12)OCO3 (stereo not given)
116 to 118 °C

What do you have for O=C(NCCc1ccccn1)c1ccc2cc(C(=O)N3CC(CCl)c4ccc([N+](=O)[O-])cc43)[nH]c2c1 (stereo not given) ?
204 to 207 °C

Continue with "Cc1nnc(CNC(=O)CN(C)C)n1-c1ccc(Cl)cc1C(=O)c1ccccc1"
176 to 178 °C

Same for "Cc1ccnc(-c2cccc(Oc3ccccc3C)n2)n1"
121 °C

Can you handle "N#CCCNC(=O)C1=CC(CF)(CF)Oc2ccc(C(F)(F)C(F)(F)F)cc21" next?
144 to 145 °C

----------
List of melting point values.

N#Cc1cc2ccccc2n1-c1ccc(CO)cc1: > 270 °C
O[C@@H]1CN(Cc2ccccc2)C[C@H]1Oc1ccc(Cl)cc1 (relative stereo): 101 to 104 °C
CCCCCCC(Oc1ccc(C2=CCCCCCC2)cc1)C(=O)O (stereo unspecified): 55 to 57 °C
CCOC(=O)CCc1ccc(C(=O)c2ccc(Cl)cc2)n1C: 71.5 to 73 °C

Return reported melting point; argument: "O=C1CCCC(=O)C1C(=O)c1ccccc1[N+](=O)[O-]"
132 to 135 °C

Please answer likewise for CC1Nc2ccc(Cl)c3cccc(c23)S1(=O)=O (stereo unspecified)
150 °C

Please give the result for Cc1ccc(C(O)CN(C)Cc2cc3c(=O)c(C(=O)NCc4ccc(Cl)cc4)cn(C)c3o2)o1 (stereo unspecified) too.
130 to 132 °C

Now the same for N#CC1=C(c2cc3ccccc3o2)Nc2n[nH]cc2C1c1cccc2nonc12 (stereo unspecified)
> 270 °C

Check "COc1cc(F)ccc1C(=O)NCCN1CCC(n2c(=O)[nH]c3cc(Cl)ccc32)CC1" too.
227 °C

Entry "Clc1ccc(C(c2ccccc2)(c2ccccc2)n2ccnc2)cc1" please
125 °C

And what about the compound Cn1nnc(-c2ccc(OCC(O)CNCCOc3ccc(O)c(C(N)=O)c3)cc2)n1 (stereo unspecified) ?
174 to 175 °C

Follow-up entry: COc1ccccc1CN[C@H]1CCCN(CCCCCC(=O)O)[C@H]1c1ccccc1 (relative stereo)
53 to 65 °C

Field entry: "COC(C)(C)c1ccc(Cl)c2nc3n(c12)CCCN3c1ccc(Cl)cc1Cl"
203 to 204 °C

Let us now turn to "CNC1=NS(=O)(=O)N=C1NCCSCc1cnc(CN(C)C)s1"
170 to 172 °C

Could you do the same for "Cc1cccc2c1-n1cnnc1SC2" , please?
234 °C
